- assay.text: Selectivity index, ratio of GI50 for human PANC1 cells to MIC for active stage of Mycobacterium tuberculosis H37Ra ATCC 25177 infected in human THP1 cells
- Type: toxicity, cell-based
- run.conditions: PANC-1 cells, read-out: Selectivity Index
measure.name: selectivity ratio

Example results:
1. CCCCCCCCCCCn1c(SCCCn2cnc3sc4c(c3c2=O)CCCC4)nc(-c2cc(OC)c(OC)c(OC)c2)c(C#N)c1=O: > 3
2. COc1cc(-c2nc(SCCCn3cnc4sc5c(c4c3=O)CCCC5)n(Cc3c(F)c(F)c(F)c(F)c3F)c(=O)c2C#N)cc(OC)c1OC: > 3

Proceeding to the next molecule to report its selectivity ratio.
query: Reported selectivity ratio for COc1cc(-c2nc(SCCCn3cnc4sc5c(c4c3=O)CCCC5)n(S(=O)(=O)c3ccc(C)cc3)c(=O)c2C#N)cc(OC)c1OC : what is it?
result: > 3

====

- assay.text: Selectivity index, ratio of GI50 for human A549 cells to MIC for active stage of Mycobacterium tuberculosis H37Ra ATCC 25177
- Format: toxicity
- run.conditions: read-out: Selectivity Index
measure.name: selectivity ratio

1. COc1cc(-c2nc(SCCCn3cnc4sc5c(c4c3=O)CCCC5)n(Cc3c(F)c(F)c(F)c(F)c3F)c(=O)c2C#N)cc(OC)c1OC: > 3
2. CCCCCCCCn1c(SCCCn2cnc3sc4c(c3c2=O)CCCC4)nc(-c2cc(OC)c(OC)c(OC)c2)c(C#N)c1=O: > 3

Proceeding to the next compound to report its selectivity ratio.
query: Reported selectivity ratio for COc1cc(-c2nc(SCCCn3cnc4sc5c(c4c3=O)CCCC5)n(S(=O)(=O)c3ccc(C)cc3)c(=O)c2C#N)cc(OC)c1OC : what is it?
result: > 3

====

- assay.text: Selectivity index, ratio of GI50 for human PANC1 cells to MIC for dormant stage of Mycobacterium tuberculosis H37Ra ATCC 25177 infected in human THP1 cells
- Type: toxicity, cell-based
- run.conditions: PANC-1 cells, read-out: Selectivity Index
measure.name: selectivity ratio

Example results:
1. N#Cc1c(-c2ccc(O)cc2)[nH]c(=S)[nH]c1=O: < 3
2. COc1cc(-c2nc(SCCCn3cnc4sc5c(c4c3=O)CCCC5)n(CCCn3cnc4sc5c(c4c3=O)CCCC5)c(=O)c2C#N)cc(OC)c1OC: > 3

query: Reported selectivity ratio for COc1cc(-c2nc(SCCCn3cnc4sc5c(c4c3=O)CCCC5)n(C)c(=O)c2C#N)cc(OC)c1OC : what is it?
result: 1

query: Reported selectivity ratio for COc1cc(-c2nc(SCCCn3cnc4sc5c(c4c3=O)CCCC5)n(CCC(F)(F)C(F)(F)C(F)(F)C(F)(F)C(F)(F)C(F)(F)F)c(=O)c2C#N)cc(OC)c1OC : what is it?
result: > 11

query: Reported selectivity ratio for COc1cc(-c2nc(SCCCn3cnc4sc5c(c4c3=O)CCCC5)n(Cc3ccccc3)c(=O)c2C#N)cc(OC)c1OC : what is it?
result: 2

query: Reported selectivity ratio for Cc1ccc(-c2nc(S)nc(O)c2C#N)cc1 : what is it?
result: > 3

query: Reported selectivity ratio for COc1cc(-c2nc(SCCCn3cnc4sc5c(c4c3=O)CCCC5)n(Cc3c(F)c(F)c(F)c(F)c3F)c(=O)c2C#N)cc(OC)c1OC : what is it?
result: > 4
